System: OVCAR-8 ovarian
protocol.summary: NCI tumour cell line growth inhibition, 48 h

compound | TGI
C/C(=N\NC(=S)NC1CCCC1)c1ccccn1 | > 22.4 µM
[C-]#[O+].[C-]#[O+].[C-]#[O+].[C-]#[O+].[Ir].[Ir].[O-]c1ccc2ccccc2c1C=Nc1ccc(N=Cc2c([O-])ccc3ccccc23)cc1 | > 100 µM
CC(=O)NCCSC(=O)c1ccccc1 | 0.81 µM
COC(=O)C1C2C=CC(C2)C1(C(=O)OC)S(=O)CC12CCC(CC1O)C2(C)C (stereo unspecified) | > 100 µM
COc1c(OC)c(N)c2cc(C)c(=O)c(C)cc2c1N | > 100 µM
Nc1ncnc2c1ncn2CC(O)C(=O)O (stereo unspecified) | > 100 µM
CCOC(=O)NC(C(=O)OCC)C(F)(F)F (stereo unspecified) | > 100 µM
O=C1c2cc3c(cc2CC12Cc1cc4c(cc1C2=O)CCC4)CCC3 | > 100 µM
O=C1CC(c2ccc3c(c2)OCO3)Nc2cc3c(cc21)OCO3 (stereo unspecified) | > 100 µM
NC(=O)NO | > 2460 µM
CCN1CN(c2ccccc2)C2(CCN(CCCSc3ccc(F)cc3)CC2)C1=O | 30.5 µM

This collection of values is drawn from PubChem BioAssay (NCI).
